- subject_of_test: UniProt:P50579
- assay_notes: MetAP2 enzyme assay, enzyme complexed with manganese ions
- setup_conditions: MetAP2 Mn pIC50, MetAP2 enzyme complexed with manganese ions; Met-AMC substrate at Km
value_type: IC50 (nM)
Number only, in nM; omit the unit.

CCCOc1ncccc1-c1cc(C(F)(F)F)cc2[nH]ncc12; 25.1
Cc1nc(N)ccc1-c1cc(C(F)(F)F)cc2[nH]ncc12; 7.94
Cn1cc(C(=O)NCC(F)F)cc(-c2cc(C(F)(F)F)cc3[nH]ncc23)c1=O; 5.01
Cc1n[nH]c(C)c1-c1cc(C(F)(F)F)cc2[nH]ncc12; 20

Query: Give the reported IC50 for this compound. "CC(=O)Cn1nc(C)c(-c2cc(C(F)(F)F)cc3[nH]ncc23)c1C"
Response: 31.6

Query: Give the reported IC50 for this compound. Cn1cc(C(=O)NCC(O)CO)cc(-c2cc(C(F)(F)F)cc3[nH]ncc23)c1=O (stereo not drawn)
Response: 6.31

Query: Give the reported IC50 for this compound. "FC(F)(F)c1cc(-c2cccnc2OC2CCCC2)c2cn[nH]c2c1"
Response: 15.8

Query: Give the reported IC50 for this compound. "O=S(=O)(NCCO)c1ccc(-c2cc(C(F)(F)F)cc3[nH]ncc23)cc1"
Response: 2.51

Query: Give the reported IC50 for this compound. "O=S(=O)(c1ccc(-c2cc(C(F)(F)F)cc3[nH]ncc23)cc1)n1cccn1"
Response: 7.94

Query: Give the reported IC50 for this compound. "CCN1C(=O)C(=O)c2cc(C)cc(-c3cc(C(F)(F)F)cc4[nH]ncc34)c21"
Response: 158

Query: Give the reported IC50 for this compound. "FC(F)(F)c1cc(-c2cccc3cccnc23)c2cn[nH]c2c1"
Response: 15.8

Query: Give the reported IC50 for this compound. "Cc1nn(C)cc1-c1cc(C(F)(F)F)cc2[nH]ncc12"
Response: 12.6

----------
- subject_of_test: human MetAP2 enzyme (Homo sapiens)
- assay_notes: MetAP2 enzyme assay, enzyme complexed with manganese ions
- setup_conditions: MetAP2 Mn pIC50, MetAP2 enzyme complexed with manganese ions; Met-AMC substrate at Km
value_type: pIC50
Scale: pIC50 equals -log10([C]), with [C] in mol/L.

Query: Give the reported pIC50 for this compound. Fc1c[nH]c2ncc(-c3cc(C(F)(F)F)cc4[nH]ncc34)cc12 [Example 339]
Response: 7.70

Query: Give the reported pIC50 for this compound. Oc1ncccc1-c1cc(C(F)(F)F)cc2[nH]ncc12 [Example 210]
Response: 7.90

Query: Give the reported pIC50 for this compound. Cn1cc(-c2cc(C(F)(F)F)cc3[nH]ncc23)c(=O)n(C)c1=O [Example 82]
Response: 8.00

----------
- subject_of_test: human MetAP2 enzyme (Homo sapiens)
- assay_notes: MetAP2 enzyme assay, enzyme complexed with manganese ions
- setup_conditions: MetAP2 Mn pIC50, MetAP2 enzyme complexed with manganese ions; Met-AMC substrate at Km
pIC50: −log10 of the molar value.
Where pIC50 equals or exceeds 8, the correct label is rule met; where it does not, the label is rule not met.

FC(F)(F)c1cc(-c2ccc3scnc3c2)c2cn[nH]c2c1; rule met

# input for lookup
Query: Form field: pIC50 at least 8? Entry: "Cc1ccc(N)c(-c2cc(C(F)(F)F)cc3[nH]ncc23)n1"
Response: rule not met

----------
- subject_of_test: human MetAP2 enzyme (Homo sapiens)
- assay_notes: MetAP2 enzyme assay, enzyme complexed with manganese ions
- setup_conditions: MetAP2 Mn pIC50, MetAP2 enzyme complexed with manganese ions; Met-AMC substrate at Km
Readings of IC50 for the listed molecules
Number only, in nM; omit the unit.

O=C(O)Cn1cc(-c2cc(C(F)(F)F)cc3[nH]ncc23)ccc1=O; 63.1
NC(=O)c1cc(-c2cc(C(F)(F)F)cc3[nH]ncc23)ccn1; 3.98
O=C(NCc1ccccc1)c1cccc(-c2cc(C(F)(F)F)cc3[nH]ncc23)c1; 31.6
CN1C(=O)Cc2cc(-c3cc(C(F)(F)F)cc4[nH]ncc34)ccc21; 3.98
Cc1ccc(C(=O)N2CCC(CO)C2)cc1-c1cc(C(F)(F)F)cc2[nH]ncc12 (stereo not drawn); 15.8
COc1cc(-c2cc(C(F)(F)F)cc3[nH]ncc23)c(OC)nn1; 5.01

Query: Give the reported IC50 for this molecule. "O=c1[nH]c2ccc(-c3cc(C(F)(F)F)cc4[nH]ncc34)cc2[nH]1"
Response: 2.51

Query: Give the reported IC50 for this molecule. "Cc1cnc(-c2cc(C(F)(F)F)cc3[nH]ncc23)n1C"
Response: 6.31

Query: Give the reported IC50 for this molecule. "O=C(NCCO)c1ncc(-c2cc(C(F)(F)F)cc3[nH]ncc23)cn1"
Response: 7.94

----------
- subject_of_test: human MetAP2 enzyme (Homo sapiens, UniProt P50579)
- Sequence (P50579 whole entry): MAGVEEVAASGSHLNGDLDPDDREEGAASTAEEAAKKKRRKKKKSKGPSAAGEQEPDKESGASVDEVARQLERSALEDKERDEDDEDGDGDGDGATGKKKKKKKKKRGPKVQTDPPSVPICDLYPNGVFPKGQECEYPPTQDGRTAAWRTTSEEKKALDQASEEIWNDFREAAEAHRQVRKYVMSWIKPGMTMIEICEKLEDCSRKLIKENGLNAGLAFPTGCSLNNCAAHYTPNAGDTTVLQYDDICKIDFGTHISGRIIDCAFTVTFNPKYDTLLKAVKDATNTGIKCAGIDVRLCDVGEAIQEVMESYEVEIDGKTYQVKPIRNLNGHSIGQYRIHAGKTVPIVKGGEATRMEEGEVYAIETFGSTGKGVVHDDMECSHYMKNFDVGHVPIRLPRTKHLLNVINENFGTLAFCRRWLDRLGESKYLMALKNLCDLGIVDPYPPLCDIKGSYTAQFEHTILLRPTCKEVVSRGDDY
- assay_notes: MetAP2 enzyme assay, enzyme complexed with manganese ions
- setup_conditions: MetAP2 Mn pIC50, MetAP2 enzyme complexed with manganese ions; Met-AMC substrate at Km
value_type: pIC50
Scale: pIC50 equals -log10([C]), with [C] in mol/L.

COCCNc1ncc(-c2cc(C(F)(F)F)cc3[nH]ncc23)cn1; 8.20
NC(=O)c1ccc2ncc(-c3cc(C(F)(F)F)cc4[nH]ncc34)n2n1; 7.40
Cc1cc(-c2cc(C(F)(F)F)cc3[nH]ncc23)n(C)n1; 8.10

Query: Give the reported pIC50 for this compound. "Cc1c(-c2cc(C(F)(F)F)cc3[nH]ncc23)ccc(=O)n1CC#N"
Response: 8.00

Query: Give the reported pIC50 for this compound. "Cc1nc(N2CCN(C)CC2)ccc1-c1cc(C(F)(F)F)cc2[nH]ncc12"
Response: 8.10

Query: Give the reported pIC50 for this compound. "Cc1nn(CC(=O)NC(C)C)c(C)c1-c1cc(C(F)(F)F)cc2[nH]ncc12"
Response: 7.70

----------
- subject_of_test: human MetAP2 enzyme (Homo sapiens)
- assay_notes: MetAP2 enzyme assay, enzyme complexed with manganese ions
- setup_conditions: MetAP2 Mn pIC50, MetAP2 enzyme complexed with manganese ions; Met-AMC substrate at Km
value_type: IC50 (nM)
Number only, in nM; omit the unit.

FC(F)(F)c1cc(-c2ccc(OCCN3CCOCC3)cc2)c2cn[nH]c2c1; 7.94
Cc1cc(S(=O)(=O)N(C)C)ccc1-c1cc(C(F)(F)F)cc2[nH]ncc12; 31.6
COc1ccc(C(=O)N(C)C)cc1-c1cc(C(F)(F)F)cc2[nH]ncc12; 10
FC(F)(F)c1cc(-c2cccc3c2OCO3)c2cn[nH]c2c1; 15.8
Cn1cc2c(-c3cc(C(F)(F)F)cc4[nH]ncc34)cccc2n1; 6.31

Query: Using human MetAP2 enzyme (Homo sapiens) as the test system, report measured IC50 of "Cc1nn(CC2(C)COC2)c(C)c1-c1cc(C(F)(F)F)cc2[nH]ncc12" .
Response: 25.1

Query: Using human MetAP2 enzyme (Homo sapiens) as the test system, report measured IC50 of "CN1CCN(C(=O)c2cc(-c3cc(C(F)(F)F)cc4[nH]ncc34)cnc2N)CC1" .
Response: 6.31

Query: Using human MetAP2 enzyme (Homo sapiens) as the test system, report measured IC50 of "Cn1cc(-c2cc(C(F)(F)F)cc3[nH]ncc23)c(=O)n(CC#N)c1=O" .
Response: 25.1

Query: Using human MetAP2 enzyme (Homo sapiens) as the test system, report measured IC50 of "CN(C)C(=O)c1cc(F)cc(-c2cc(C(F)(F)F)cc3[nH]ncc23)c1" .
Response: 10

----------
Readings of pIC50 for the listed compounds
- subject_of_test: human MetAP2 enzyme (Homo sapiens, UniProt P50579)
- assay_notes: MetAP2 enzyme assay, enzyme complexed with cobalt ions
- setup_conditions: MetAP2 Co pIC50, MetAP2 enzyme complexed with cobalt ions; Met-AMC substrate at Km
Scale: pIC50 equals -log10([C]), with [C] in mol/L.

O=c1[nH]c2ccc(-c3cc(C(F)(F)F)cc4[nH]ncc34)cc2[nH]1; 7.90
COCCNc1ncc(-c2cc(C(F)(F)F)cc3[nH]ncc23)cn1; 7.00
O=S(=O)(NCCO)c1ccc(-c2cc(C(F)(F)F)cc3[nH]ncc23)cc1; 7.40
COc1ncc(-c2cc(C(F)(F)F)cc3[nH]ncc23)cc1C(=O)N1CCN(C)CC1; 7.50
FC(F)(F)c1cc(-c2cnc3[nH]c(C(F)(F)F)nc3c2)c2cn[nH]c2c1; 7.30
COc1ccc(C(=O)NCCO)cc1-c1cc(C(F)(F)F)cc2[nH]ncc12; 7.40
Cc1nccc(N)c1-c1cc(C(F)(F)F)cc2[nH]ncc12; 5.80
FC(F)(F)c1cc(-c2cccnc2OC2CCCC2)c2cn[nH]c2c1; 7.40

Query: Give the reported pIC50 for this compound. "Cc1c(-c2cc(C(F)(F)F)cc3[nH]ncc23)ccc(=O)n1C"
Response: 7.40
